Tested on: TDF;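 further: TDF denotes transformed human dermal fibroblasts of mesenchymal origin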
TEST DETAILS: cell number relative to DMSO (% of DMSO); higher = more cells (less growth inhibition / toxicity)
ASSAY CONDITIONS: concentration: 10 µM; 24 h
Counter-ions that a name gives are not always drawn.
METRIC NAME: cell number
Numbers only.

| COMPOUND | TARGET OF ASSAY | READING |
| --- | --- | --- |
| N[C@@H](CC(=O)O)C(=O)O | TDF | 108 |
| Cc1cc(CS(=O)(=O)c2ccccc2)cc(OCc2ccc(CN3CCC[C@@H]3CO)cc2)c1 [PF-543 hydrochloride] | TDF | 90.2 |
| Cl.O=S(=O)(c1cccc2c(I)cccc12)N1CCCNCC1 | TDF | 116 |
| CC(C(O)c1ccc(O)cc1)N1CCC(Cc2ccccc2)CC1 (stereo not given) [Ifenprodil tartrate] | TDF | 102 |
| O=C1Cc2c([nH]c3ccc(Br)cc23)-c2ccccc2N1 [Kenpaulone] | TDF | 97.7 |

Record cell number for all entries; do not skip any.
1. CC1=CC(=O)c2ccccc2C1=O
2. NC(=O)c1ncn(C2OC(CO)C(O)C2O)n1 (stereo not given)
3. CC(=O)OCC(CCn1cnc2cnc(N)nc21)COC(C)=O
4. CCC1=C(C)CN(C(=O)NCCc2ccc(S(=O)(=O)NC(=O)NC3CCC(C)CC3)cc2)C1=O (stereo not given) [Glimepiride]

[82.8, 105, 97.4, 111]

Record cell number for all entries; do not skip any.
1. CN1CCN(CCCN2c3ccccc3Sc3ccc(C(F)(F)F)cc32)CC1.Cl.Cl [Trifluoperazine dihydrochloride]
2. Cl.NC1C=CC=C(C(=O)O)C1 (stereo not given) [Gabaculine hydrochloride]
3. NC(=O)N1c2ccccc2CC(=O)c2ccccc21 [Oxcarbazepine]

1. 108
2. 108
3. 108

Record cell number for all entries; do not skip any.
1. COc1cc(=O)n(C)c2c(OCC(O)C(C)(C)O)cccc12 (stereo not given)
2. COc1cc2c3cc1Oc1c(OC)c(OC)cc4c1C(Cc1ccc(O)c(c1)Oc1ccc(cc1)CC3N(C)CC2)N(C)CC4.Cl.Cl (stereo not given)
3. CC1CCc2c(N3CCC(O)CC3)c(F)cc3c(=O)c(C(=O)O)cn1c23 (stereo not given)
4. CCCCN1CCCC[C@H]1C(=O)Nc1c(C)cccc1C.Cl
5. CCN(CC)CC#CCOC(=O)C(O)(c1ccccc1)C1CCCCC1.Cl (stereo not given) [Oxybutynin Chloride]

112
92.2
89.2
107
101

Record cell number for all entries; do not skip any.
1. Nc1ncnc2n[nH]c(Nc3ccc(F)cc3)c12
2. CNCCCC12CCC(c3ccccc31)c1ccccc12.Cl [Maprotiline.HCl]
3. CN(C)CCC(c1ccc(Cl)cc1)c1ccccn1 (stereo not given)
4. CCCCCC(=O)c1c(O)c(Cl)c(OC)c(Cl)c1O [1-(3,5-dichloro-2,6-dihydroxy-4-methoxyphenyl)-1-hexanone]
5. CCCCCCCCCCCCCCCC(O)C(N)CO (racemic) [DL-Dihydrosphingosine]

1. 102
2. 90.4
3. 98.1
4. 90
5. 101

* * *

Test system: TDF;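 further: TDF denotes transformed human dermal fibroblasts of mesenchymal origin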
TEST DETAILS: cell number relative to DMSO (% of DMSO); higher = more cells (less growth inhibition / toxicity)
ASSAY CONDITIONS: concentration: 10 µM; 24 h
Classification field: T = cell number at or over 100; F = cell number under 100.

Examples from the recorded data:
| MOLECULE | QUALITATIVE LABEL |
| --- | --- |
| C[C@H](N[C@@H](CCc1ccccc1)C(=O)O)C(=O)N1CCC[C@H]1C(=O)O.O.O | F |
| Cl.Nc1ccn(C2OC(CO)C(O)C2O)c(=O)n1 [Cytosine-1-beta-D-arabinofuranoside hydrochloride] | F |
| CCNC1CC(C)S(=O)(=O)c2sc(S(N)(=O)=O)cc21.Cl (stereo not drawn) [Dorzolamide.HCl] | F |

Evaluate "O=C(c1ccc(C(=O)N2CCC(N3CCCC3)CC2)c(Nc2ccccc2)c1)N1CCC(N2CCCC2)CC1" : cell number at minimum 100? T

Evaluate COc1ccc(-c2cc(=S)ss2)cc1 [Anethole-trithione] : cell number at minimum 100? F

Evaluate Nc1nc(N)nc(-c2cc(Cl)ccc2Cl)n1 [Irsogladine] : cell number at minimum 100? T

Evaluate "NC(N)=Nc1nc(CSCCC(N)=NS(N)(=O)=O)cs1" : cell number at minimum 100? T

Evaluate "COc1cc2c(cc1-c1c(C)noc1C)ncc1[nH]c(=O)n([C@H](C)c3ccccn3)c12" : cell number at minimum 100? F

Evaluate N[C@H](CCC(=O)NCS(=O)(=O)O)C(=O)O [gamma-D-Glutamylaminomethylsulfonic acid] : cell number at minimum 100? T

Evaluate "CSc1nc2ccc3nc(NC(=O)C(c4ccccc4)c4ccccc4)sc3c2s1" : cell number at minimum 100? T

Evaluate CN(C)c1nc(N)c(C(=O)N=C(N)N)nc1Cl.Cl [5-(N,N-Dimethyl)amiloride hydrochloride] : cell number at minimum 100? F

Evaluate CC(=O)Oc1ccccc1C(=O)Oc1ccc(CO[N+](=O)[O-])cc1 [4-[(nitrooxy)methyl]phenyl 2-(acetyloxy)benzoate] : cell number at minimum 100? F

Evaluate "O=S(=O)(NCc1cccc2ccccc12)c1cc(Cl)c(Oc2cccc(N3CCNCC3)c2)s1" : cell number at minimum 100? F

Evaluate C=C1CCC2C(C)(CO)C(O)CCC2(C)C1CC=C1C(=O)OCC1O (stereo not drawn) [Andrographolide] : cell number at minimum 100? F
